# assay.system: T1, THAP1 THAP domain F81L (human, UniProt Q9NVV9 1-81, F81L)
# T1 sequence: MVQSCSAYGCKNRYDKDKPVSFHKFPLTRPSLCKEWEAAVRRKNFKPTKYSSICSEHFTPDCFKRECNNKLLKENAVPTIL
# assay.remarks: ITC
quantity.kind: pKd
Friendly reminder that pKd comes from taking -log10 of the concentration in mol/L.

Exercise: Would you mind telling me what pKd value was observed for RRM1 16-bp DNA probe (dsDNA) DNA 1: GCTTGTGTGGGCAGCG DNA 2: CGCTGCCCACACAAGC ?
Solution: 6.15
